Sourced from ChEMBL document CHEMBL1201862

- Tested on: SF-539
- TEST_METHOD_NOTES: NCI tumour cell line growth inhibition, 48 h
Activity calls are given as the source filed them. Rule as the data show it: active = GI50 up to about 1.1 µM and inactive = higher.
// allowed return values: 1.0 for active, 0.0 for inactive

Task: Hello, I am checking results. What call was entered for `COC(=O)c1ccccc1/C=C1\Cc2cc(C)c(C)cc2C1=O` ?
Result: 0.0

Task: Per the records of this test, what outcome belongs to `COc1ccc(-c2cc(=O)c3c(OC)c(OC)c(OC)cc3o2)cc1` ?
Result: 0.0

Task: Which outcome was entered for the compound `CC1(C)c2ccccc2C(=O)C12CCC(=O)CC2` in this test?
Result: 0.0

Task: What did this assay record as the result for CCOC(=O)c1ccc(N[C@@H]2c3cc4c(cc3C(c3cc(OC)c(O)c(OC)c3)[C@H]3C(=O)OCC32)OCO4)cc1 (stereo not given in full) ?
Result: 1.0

Task: Give the logged outcome of this assay for the following compound: `O=C(c1ccccc1)N1C(=S)N(c2ccccn2)C(=N/c2ccccc2)/C1=N\c1ccccc1`
Result: 0.0

Task: Hey, what did the test say about O=C1C=CC(O)C2C1CC13SSC4(CC5C(=O)C=CC(O)C5N4C1=O)C(=O)N23 (stereo not given) ?
Result: 1.0

Task: Returns: the outcome recorded for `CN(C)CCNC(=O)c1ccc2nc3c(nc2c1)C(=O)c1ccccc1-3` in this assay.
Result: 0.0
